Items are presented alongside their recorded mean nematode size ln(EXT) (ln).
- Test system: Caenorhabditis elegans N2
- Procedure summary: mean nematode size ln(EXT) after 48 h, plate-adjusted (DMSO control set to 6) (ln(EXT), control-adjusted); higher = larger nematodes / less growth inhibition
- Run parameters: 5 µM; exposure time 48 h

Answered cases to consult:
Notebook entry, Caenorhabditis elegans N2 assay: mean nematode size ln(EXT) (ln) of CN1CCN(c2ccccc2/C=C2\SCCN(c3ccc(Cl)c(Cl)c3)C2=O)CC1 [Elzasonan] = ?
5.84

One more molecule: Nc1c(Cl)c(F)nc(OCC(=O)O)c1Cl [Fluroxypyr]
5.73

Follow-up entry: O=P1(N(CCCl)CCCl)NCCCO1 (stereo unspecified) [Cytoxan hydrate]
5.89

Next:
Record lookup: for Caenorhabditis elegans N2, what mean nematode size ln(EXT) (ln) belongs to CCCCCCCCOc1ccc(C(=O)c2ccccc2)c(O)c1 [2-Hydroxy-4-(octyloxy)benzophenone] ?
5.92

Now consider CC1(C)C(C=C(Cl)Cl)C1C(=O)OC(C#N)c1ccc(F)c(Oc2ccccc2)c1 (stereo unspecified) [Cyfluthrin] .
6.12

Next record, please: N#Cc1c(Cl)c(Cl)c(Cl)c(C#N)c1Cl [Chlorothalonil]
5.95

* * *

- Test system: Caenorhabditis elegans N2
- Procedure summary: AC50 for larval growth inhibition (Hill fit); higher = less potent
- Run parameters: exposure time 48 h
Listed below: AC50 for larval growth inhibition values for each entry.

In the examples that follow, each entry is paired with its recorded AC50 for larval growth inhibition.
What AC50 for larval growth inhibition value was documented for this compound, CCCCCOC(=O)COc1cc(N2C(=O)C3=C(CCCC3)C2=O)c(F)cc1Cl ?
> 200 µM

Now the compound CC(C)N(C(=O)COc1nnc(C(F)(F)F)s1)c1ccc(F)cc1
21.5 µM

Would you kindly repeat that for CCCCOCCOCCOCc1cc2c(cc1CCC)OCO2 [Piperonyl butoxide] ?
76.9 µM

--- query ---
Need AC50 for larval growth inhibition of CCc1ccc(C(=O)NN(C(=O)c2cc(C)cc(C)c2)C(C)(C)C)cc1 [Tebufenozide] , thanks.
> 200 µM

* * *

- Test system: Caenorhabditis elegans N2
- Procedure summary: mean nematode size ln(EXT) after 48 h, plate-adjusted (DMSO control set to 6) (ln(EXT), control-adjusted); higher = larger nematodes / less growth inhibition
- Run parameters: 5 µM; exposure time 48 h
Property measured: mean nematode size ln(EXT) (ln)
Field format: numeric only.

Lab note: need mean nematode size ln(EXT) (ln) for COC(=O)C(C)Oc1ccc(Oc2ccc(Cl)cc2Cl)cc1 (stereo not drawn) on Caenorhabditis elegans N2, anyone have it?
6

What about O=c1[nH]cc(F)c(=O)[nH]1 ?
5.91

Moving on to another compound below.
Param readout = mean nematode size ln(EXT) (ln); param system = Caenorhabditis elegans N2; param query = O=C(O)C(Cl)(Cl)Cl ; response: value
5.86

* * *

- System: Caenorhabditis elegans N2
- Procedure summary: lowest effective concentration for larval growth inhibition (size below effect threshold); higher = less potent
- Run parameters: exposure time 48 h
Property measured: lowest effective concentration

The following compounds have reported results that may help.
Recorded lowest effective concentration for Nc1cnn(-c2ccccc2)c(=O)c1Cl [Chloridazon] , please?
> 200 µM

c1ccc2c(c1)-c1cccc3c1c-2cc1ccccc13 [Benzo[b]fluoranthene] , same question.
≤ 0.5 µM

Also check Cc1ccc(O)cc1C [3,4-Dimethylphenol]
> 200 µM

Others:
For the compound shown here, Cc1cn([C@H]2C=C[C@@H](CO)O2)c(=O)[nH]c1=O [Stavudine] , give the reported lowest effective concentration.
> 200 µM

Also Cc1cc(C)c(O)c(C)c1 [2,4,6-Trimethylphenol] , if possible.
> 200 µM

Here is the next compound: COCC(=O)N(c1c(C)cccc1C)C(C)C(=O)OC (stereo unspecified) [Metalaxyl]
> 200 µM
